Provide the reported self-cleavage kobs at 40 uM GlcN6P of each item.
B1: glmS ribozyme (parent)
chain: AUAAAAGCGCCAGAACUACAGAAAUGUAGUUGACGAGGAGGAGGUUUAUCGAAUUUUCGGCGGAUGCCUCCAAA

# Variants of: B1
# runDescription: self-cleavage kobs at 40 uM GlcN6P; higher = faster cleavage; RNA array
# testSettings: with glucosamine-6-phosphate
Variants at the floor of the assay were thinned out.

Reference set, count: 3
1) AUAAAAGCGACAGAACUACAGAAAUGUAGUUGACGAGUAGGAGGUUUAUCGAAUUUUCGGCGGAUGCCUCCAAA [C10A G38U] | < 1e-05 s⁻¹
2) AUAAAAGCGCCAUAACUACAGAAAUGUAGUUGACGAGGAGGAGGUUUAUCGAAUUUUCUGCGGAUGCCUCCAAA [G13U G59U] | < 1e-05 s⁻¹
3) AUAAAAGCACCAGCACUACAGAAAUGUAGUUGACGAGGAGGAGGUUUCUCGAAUUUUCGGCGGAUGCCUCCAAA [G9A A14C A48C] | < 1e-05 s⁻¹

I need self-cleavage kobs at 40 uM GlcN6P for every entry listed below, if you could help.
1. AUAAAAGCGCCAGAACUACAGAAAUGUAGUUGACGAGGAGGAGGUUUAUGGAAUUUUCUGCGGAUGGCUCCAAA [C50G G59U C67G]
2. AUAAAGGCGCGAGAACUACAGAAAUGUAGUUGACGAGGAGGUGGUUUAUCGAAUUUUCGGCGGAUGCCUCCAAA [A6G C11G A42U]

A.
["0.000108 s⁻¹", "< 1e-05 s⁻¹"]
